# Test system: BSEP mRNA in HepG2 cells
# test-name: Relative expression of BSEP mRNA in HepG2 cells, EC50 (Experimental Example 3)
# Format: cell-based
# stated-conditions: Homo sapiens, 24 hrs
measured-property: EC50 (nM)

>  <compound>
O=C(O)c1cc(F)c2nc(N3C[C@@H]4C[C@H]3C[C@H]4OCc3c(-c4ccccc4OC(F)(F)F)noc3C3CC3)sc2c1 [Compound 8]

>  <measured-property>
EC50

>  <reported-value>
0.35

$$$$
>  <compound>
O=C(O)c1cc(F)c2nc(N3[C@@H]4CC[C@H]3C[C@@H](OCc3c(-c5ccccc5OC(F)(F)F)noc3C3CC3)C4)sc2c1 [Compound 1-1B, reference compound]

>  <measured-property>
EC50

>  <reported-value>
0.75

$$$$
